Assay protocol: The drug is tested on Clostridium hathewayi strain: DSM13479 for biotransformation. The drug concentrations were measured before and after a 12-h incubation by liquid-chromatography-coupled mass spectrometry (LC–MS)
Setup conditions: hungatella hathewayi, 2 µM

{"Compound": "O=C(CCCN1CCC(O)(c2ccc(Cl)cc2)CC1)c1ccc(F)cc1", "Bacterial Biotransformation": "Compound NOT metabolized"}
{"Compound": "Cc1nc(-c2ccc(OCC(C)C)c(C#N)c2)sc1C(=O)O", "Bacterial Biotransformation": "Compound NOT metabolized"}
{"Compound": "O=C(O)COCCN1CCN(C(c2ccccc2)c2ccc(Cl)cc2)CC1 (stereo not given)", "Bacterial Biotransformation": "Compound NOT metabolized"}
{"Compound": "CN1CCN(C2=Nc3cc(Cl)ccc3Nc3ccccc32)CC1", "Bacterial Biotransformation": "Compound NOT metabolized"}

---

Assay protocol: The drug is tested on Odoribacter splanchnicus strain: fecal isolate for biotransformation. The drug concentrations were measured before and after a 12-h incubation by liquid-chromatography-coupled mass spectrometry (LC–MS)
Setup conditions: 2 µM
Readout label: Bacterial Biotransformation

{"Molecule": "CCN(CC)CCOC(=O)C(Cc1cccc2ccccc12)CC1CCCO1.O=C(O)C(=O)O (stereo not drawn) [NAFRONYL OXALATE]", "Bacterial Biotransformation": "Compound metabolized"}
{"Molecule": "CCN(C)C(=O)Oc1cccc([C@H](C)N(C)C)c1.O=C(O)C(O)C(O)C(=O)O [RIVASTIGMINE TARTRATE]", "Bacterial Biotransformation": "Compound NOT metabolized"}
{"Molecule": "Nc1nc2ccc(OC(F)(F)F)cc2s1", "Bacterial Biotransformation": "Compound NOT metabolized"}
{"Molecule": "Cc1nc2n(c(=O)c1CCN1CCC(c3noc4cc(F)ccc34)CC1)CCCC2O (stereo not drawn)", "Bacterial Biotransformation": "Compound metabolized"}
{"Molecule": "CC(CCc1ccccc1)NCC(O)c1ccc(O)c(C(N)=O)c1 (stereo not drawn)", "Bacterial Biotransformation": "Compound NOT metabolized"}
{"Molecule": "CC(=O)OCC(=O)NCCCOc1cccc(CN2CCCCC2)c1 [ROXATIDINE ACETATE]", "Bacterial Biotransformation": "Compound metabolized"}

Please fill in: Bacterial Biotransformation reported for C[C@@H](CO)NC(=O)[C@@H]1C=C2c3cccc4[nH]cc(c34)C[C@H]2N(C)C1.O=C(O)/C=C\C(=O)O [ERGONOVINE MALEATE] = Compound metabolized

Please fill in: Bacterial Biotransformation reported for CS(=O)(=O)O.OC(CCN1CCCCC1)(c1ccccc1)c1ccccc1 [PRIDINOL METHANESULFONATE] = Compound NOT metabolized

---

Setup conditions: bacteroides thetaiotaomicron, 12 h, 2 µM
Description: The drug is tested on Bacteroides thetaiotaomicron strain: 7330 for biotransformation. The drug concentrations were measured before and after a 12-h incubation by liquid-chromatography-coupled mass spectrometry (LC–MS)
Readout label: Bacterial Biotransformation

Example entries and their recorded answers appear below.
{"Molecule": "C=CCc1ccccc1OCC(O)CNC(C)C (stereo not drawn)", "Val": "Compound NOT metabolized"}
{"Molecule": "N#Cc1ccc2[nH]cc(CCCCN3CCN(c4ccc5oc(C(N)=O)cc5c4)CC3)c2c1", "Val": "Compound metabolized"}
{"Molecule": "CC(=O)OCC(=O)[C@@]1(OC(C)=O)[C@@H](C)C[C@H]2[C@@H]3C[C@H](F)C4=CC(=O)C=C[C@]4(C)[C@@]3(F)[C@@H](O)C[C@@]21C [DIFLORASONE DIACETATE]", "Val": "Compound metabolized"}
{"Molecule": "CN(C(=O)CN(CCO)CC(=O)N(C)C(C)(C)Cc1ccccc1)C(C)(C)Cc1ccccc1", "Val": "Compound NOT metabolized"}
{"Molecule": "CCCN(CCC)CCc1cccc2c1CC(=O)N2", "Val": "Compound NOT metabolized"}

Please fill in: Bacterial Biotransformation reported for CCOc1ccccc1OCCN[C@H](C)Cc1ccc(OC)c(S(N)(=O)=O)c1.Cl [TAMSULOSIN HYDROCHLORIDE] = Compound NOT metabolized

Please fill in: Bacterial Biotransformation reported for CC(C)(C)NCC(O)COc1cccc2c1CC(O)C(O)C2 (stereo not drawn) = Compound NOT metabolized

Please fill in: Bacterial Biotransformation reported for CC(=O)Oc1ccc(C(c2ccc(OC(C)=O)cc2)c2ccccn2)cc1 = Compound metabolized
